# Target Of Assay: T1, Human purified factor H (human, UniProt P08603 19-1231)
# T1 construct: mature; Full length plasma-purified protein; also called FH; full length FH
# T1 sequence (P08603 19-1231): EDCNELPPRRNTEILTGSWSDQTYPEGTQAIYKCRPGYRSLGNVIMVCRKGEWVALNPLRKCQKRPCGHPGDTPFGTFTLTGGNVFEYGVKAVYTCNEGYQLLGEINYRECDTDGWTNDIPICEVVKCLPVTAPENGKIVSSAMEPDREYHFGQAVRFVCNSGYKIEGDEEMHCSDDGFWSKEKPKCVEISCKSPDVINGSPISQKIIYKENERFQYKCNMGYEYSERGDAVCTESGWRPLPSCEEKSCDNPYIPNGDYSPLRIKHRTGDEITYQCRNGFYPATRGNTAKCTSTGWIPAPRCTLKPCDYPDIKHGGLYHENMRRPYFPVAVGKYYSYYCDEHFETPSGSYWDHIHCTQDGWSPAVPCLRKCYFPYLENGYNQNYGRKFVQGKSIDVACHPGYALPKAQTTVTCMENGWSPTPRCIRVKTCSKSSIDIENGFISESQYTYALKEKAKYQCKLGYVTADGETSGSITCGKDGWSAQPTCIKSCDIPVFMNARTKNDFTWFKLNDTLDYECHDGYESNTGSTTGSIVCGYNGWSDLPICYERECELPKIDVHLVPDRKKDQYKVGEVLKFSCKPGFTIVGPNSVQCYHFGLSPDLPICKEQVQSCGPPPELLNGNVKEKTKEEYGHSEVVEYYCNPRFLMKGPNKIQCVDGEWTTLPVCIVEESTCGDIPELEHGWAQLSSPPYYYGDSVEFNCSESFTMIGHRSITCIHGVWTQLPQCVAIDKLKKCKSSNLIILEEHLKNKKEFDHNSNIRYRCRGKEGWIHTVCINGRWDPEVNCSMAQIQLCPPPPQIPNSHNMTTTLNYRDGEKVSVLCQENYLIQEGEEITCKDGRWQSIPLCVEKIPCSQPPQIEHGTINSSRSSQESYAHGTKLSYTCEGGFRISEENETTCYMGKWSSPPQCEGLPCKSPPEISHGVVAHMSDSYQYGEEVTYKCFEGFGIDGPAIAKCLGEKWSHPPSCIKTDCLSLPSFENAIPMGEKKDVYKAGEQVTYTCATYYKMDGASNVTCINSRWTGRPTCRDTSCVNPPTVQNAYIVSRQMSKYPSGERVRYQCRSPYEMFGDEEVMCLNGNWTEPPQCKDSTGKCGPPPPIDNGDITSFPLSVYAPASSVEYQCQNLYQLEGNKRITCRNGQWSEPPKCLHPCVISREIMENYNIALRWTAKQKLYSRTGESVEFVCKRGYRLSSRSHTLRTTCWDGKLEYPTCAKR
# Protocol Text: SPR (BiaCore T200), antibody captured on Protein A or Protein G chip, full length FH flowed over
As shown below, each of these binders has a reported Kd value.

Binder	Kd / nM
Antibody 2 (antibody, V domains shown) VH: QVQLQESGPGLVKPSQTLSLTCTVSGFSLTNYGVYWIRQHPGKGLEWIGVIWSGGTTEYNPSMKSRVTISKDTSKNQVSLKLSSVTAADTAVYYCARNFGNYAMDFWGQGTSVTVSS VL: DIQLTQSPSSLSASVGDRVTITCKASSSVTYLHWYQQKPGKAPKPLIYATSNLASGVPSRFSGSGSGTDFTLTISSLQPEDFATYYCQHRSSSNPLTFGAGTKLELK	0.52
FHR-1.3B4 (antibody, V domains shown, Mouse monoclonal antibody raised in BALB/c mice against recombinant human FHR-1 (hybridoma); kappa light chain implied by capture on rat anti-mouse kappa RM19; also called anti-FHR-1.3B4; anti-FHR-1 3B4) VH: QVQLRQSGPGLVQPSQSLSITCTVSGFSLTNYGVYWVRQSPGKGLEWLGVIWSGGTTDYSAAFISRLSISKDNSKSQVFFKMNSLQADDTAIYYCARNFGNYAMDYWGQGTSVTVSS VL: QIVLSQSPTILSASPGEKVTMTCRASSSVTYMHWYQQKPGSSPKPWIYATSNLASGVPARFSGSGSGTSYSLTISRVEAEDAATYYCQQRSSSNPLTFGAGTKLELK	0.91
Antibody 3 (antibody, V domains shown) VH: QVQLQESGPGLVKPSQTLSLTCTVSGFSLTNYGVYWIRQHPGKGLEWIGVVWSGGTTEFNPSLKSRVTISKDTSKNQVSLKLSSVTAADTAVYYCARNFGNYAMDYWGQGTSVTVSS VL: DIQLTQSPSSLSASVGDRVTITCRASTSVTYMHWYQQKPGKAPKPLIYASSNLASGVPSRFSGSGSGTDFTLTISSLQPEDFATYYCQHRSSSNPLTFGAGTKLELK	0.85
Antibody 4 (antibody, V domains shown) VH: QVQLQESGPGLVKPSQTLSLTCTVSGFSLTNYGVYWIRQHPGKGLEWIGVIWSGGTTEYNPSMKSRVTISKDTSKNQVSLKLSSVTAADTAVYYCARNFGNYAMDFWGQGTSVTVSS VL: DIQLTQSPSSLSASVGDRVTITCRASTSVTYMHWYQQKPGKAPKPLIYASSNLASGVPSRFSGSGSGTDFTLTISSLQPEDFATYYCQHRSSSNPLTFGAGTKLELK	0.58
Antibody 1 (antibody, V domains shown) VH: QVQLQESGPGLVKPSQTLSLTCTVSGFSLTNYGVYWIRQHPGKGLEWIGVVWSGGTTEFNPSLKSRVTISKDTSKNQVSLKLSSVTAADTAVYYCARNFGNYAMDYWGQGTSVTVSS VL: DIQLTQSPSSLSASVGDRVTITCKASSSVTYLHWYQQKPGKAPKPLIYATSNLASGVPSRFSGSGSGTDFTLTISSLQPEDFATYYCQHRSSSNPLTFGAGTKLELK	0.5
